Target: recombinant human DAO (diamine oxidase) (Homo sapiens, UniProt P19801)
Construct: purchased R&D systems
Sequence (P19801 20-751): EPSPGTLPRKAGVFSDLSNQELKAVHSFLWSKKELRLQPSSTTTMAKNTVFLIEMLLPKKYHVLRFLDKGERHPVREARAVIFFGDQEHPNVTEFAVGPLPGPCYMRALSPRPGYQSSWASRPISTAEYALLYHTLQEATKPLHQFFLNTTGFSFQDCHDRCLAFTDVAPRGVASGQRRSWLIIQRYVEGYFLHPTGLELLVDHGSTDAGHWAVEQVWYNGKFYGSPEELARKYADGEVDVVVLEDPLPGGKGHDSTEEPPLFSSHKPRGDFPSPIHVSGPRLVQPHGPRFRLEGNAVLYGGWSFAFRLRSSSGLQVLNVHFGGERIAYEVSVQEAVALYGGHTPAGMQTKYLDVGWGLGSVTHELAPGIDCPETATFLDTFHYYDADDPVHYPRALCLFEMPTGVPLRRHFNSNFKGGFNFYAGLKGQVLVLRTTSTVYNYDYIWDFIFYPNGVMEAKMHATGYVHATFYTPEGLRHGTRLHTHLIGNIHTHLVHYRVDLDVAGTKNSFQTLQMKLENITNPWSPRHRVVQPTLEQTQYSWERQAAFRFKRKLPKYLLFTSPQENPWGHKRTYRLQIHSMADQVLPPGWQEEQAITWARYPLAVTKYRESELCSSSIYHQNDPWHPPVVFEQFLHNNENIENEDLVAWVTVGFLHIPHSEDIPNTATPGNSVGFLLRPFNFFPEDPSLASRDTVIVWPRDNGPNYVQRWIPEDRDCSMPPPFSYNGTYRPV
Test: Activity on recombinant human DAO, method similar to VAP-1 assay, 1 mM putrescine substrate
Format: biochemical
Settings: read-out: Inhibitory Activity (IC50, nM) DAO
Where a name gives a salt, the structure may show the parent alone.
observable: IC50 (nM)

Solved cases below.
>>> test_result("NCC(Cn1nc2cc(C#Cc3ccc4c(c3)NCCO4)ccn2c1=O)=C(F)F [Example 59, ditrifluoroacetate]")
9000
>>> test_result("CS(=O)(=O)c1cccc(-c2ccn3c(=O)n(C/C(=C/F)CN)nc3c2)c1 [Example 22, hydrochloride]")
12
>>> test_result("CN(C)c1ccc(C#Cc2ccn3c(=O)n(CC(CN)=C(F)F)nc3c2)cn1 [Example 57, trifluoroacetate]")
120
>>> test_result("NC/C(=C\\F)Cn1nc2cc(-c3ccnc4[nH]ccc34)ccn2c1=O [Example 40, hydrochloride]")
9.4
>>> test_result("NC/C(=C\\F)Cn1nc2cc(-c3ccc(C(F)(F)F)nc3)ccn2c1=O [Example 30, hydrochloride]")
1.1
>>> test_result("NC/C(=C\\F)Cn1nc2ccc(-c3ccc(-c4ccon4)cc3)cn2c1=O [Example 7, hydrochloride]")
0.2
>>> test_result("COc1ccc(-c2ccn3c(=O)n(C/C(=C/F)CN)nc3c2)cn1 [Example 31, hydrochloride]")
5
>>> test_result("NC/C(=C\\F)Cn1nc2ccc(-c3ccc(C(F)(F)F)nc3)cn2c1=O [Example 9, hydrochloride]")
0.2
>>> test_result("CN1CCOc2cc(-c3ccn4c(=O)n(C/C(=C/F)CN)nc4c3)ccc21 [Example 44, hydrochloride]")
400
>>> test_result("NC/C(=C\\F)Cn1nc2ccc(-c3ccc4c(c3)OCO4)cn2c1=O [Example 12, hydrochloride]")
1.1

[I] NCC(Cn1nc2cccc(Br)n2c1=O)=C(F)F [Example 45, trifluoroacetate]
[II] NC/C(=C\F)Cn1nc2cc(-c3ccc(-c4ccon4)cc3)ccn2c1=O [Example 25, hydrochloride]
Input: Parameter check: reported IC50 is higher for which label, I or II ? Pick one; state its label.
Output: I
(I: 11000 nM, II: 9.1 nM)

###

The entries below are paired with their reported IC50.
Biological target: recombinant human MAO-A (monoamine oxidase-A) (Homo sapiens)
Construct: purchased Sigma-Aldrich
Sequence (P21397 whole entry): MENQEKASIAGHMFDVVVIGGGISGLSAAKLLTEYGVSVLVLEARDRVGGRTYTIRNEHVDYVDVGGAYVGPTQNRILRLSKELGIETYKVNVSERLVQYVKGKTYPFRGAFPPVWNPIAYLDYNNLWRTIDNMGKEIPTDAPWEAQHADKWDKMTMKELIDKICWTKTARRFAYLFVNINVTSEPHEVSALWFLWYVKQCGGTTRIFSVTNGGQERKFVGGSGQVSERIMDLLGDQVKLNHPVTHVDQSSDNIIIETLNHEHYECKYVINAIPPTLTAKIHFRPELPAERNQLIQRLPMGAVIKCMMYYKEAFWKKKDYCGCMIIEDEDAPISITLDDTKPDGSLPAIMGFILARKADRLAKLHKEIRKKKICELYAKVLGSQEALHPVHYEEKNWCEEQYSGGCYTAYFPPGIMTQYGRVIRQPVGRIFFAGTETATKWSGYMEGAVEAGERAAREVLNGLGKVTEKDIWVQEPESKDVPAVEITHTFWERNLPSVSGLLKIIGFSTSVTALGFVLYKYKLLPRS
Test: Activity on recombinant human MAO-A, method similar to VAP-1 assay, 0.5 mM tyramine substrate
Type: biochemical
Settings: read-out: Inhibitory Activity (IC50, nM) MAO-A
Counter-ions that a name gives are not always drawn.

// known answers, use as guide
>>> test_result("NC/C(=C\\F)Cn1nc2cc(C3=CCNCC3)ccn2c1=O [Example 34, dihydrochloride]")
"> 100000 nM"
>>> test_result("CS(=O)(=O)c1ccc(-c2ccc3nn(C/C(=C/F)CN)c(=O)n3c2)cc1 [Example 3, trifluoroacetate]")
"> 100000 nM"
>>> test_result("NC/C(=C\\F)Cn1nc2cc(-c3ccc4cn[nH]c4c3)ccn2c1=O [Example 37, hydrochloride]")
"26000 nM"
>>> test_result("CN1C(=O)CCc2cc(-c3ccn4c(=O)n(CC(CN)=C(F)F)nc4c3)ccc21 [Example 54, trifluoroacetate]")
"> 100000 nM"
>>> test_result("NC/C(=C\\F)Cn1nc2cc(-c3ccc4c(c3)NC(=O)OC4)ccn2c1=O [Example 41, hydrochloride]")
"6800 nM"

# compound Cc1cc(-c2ccc3nn(C/C(=C/F)CN)c(=O)n3c2)cc2c1NC(=O)CC2 [Example 17, hydrochloride] ; its IC50 = > 100000 nM

The recorded IC50 for entry CN(C)c1ccc(-c2ccn3c(=O)n(CC(CN)=C(F)F)nc3c2)cn1 [Example 51, trifluoroacetate] equals > 100000 nM

// field: IC50; key: CN(C)c1ccc(C#Cc2ccn3c(=O)n(CC(CN)=C(F)F)nc3c2)cn1 [Example 57, trifluoroacetate] ; value = > 100000 nM

Documented IC50 of NCC(Cn1nc2cc(C#Cc3ccc4c(c3)CCC(=O)N4)ccn2c1=O)=C(F)F [Example 62, trifluoroacetate] : > 100000 nM

GET /value?item= CN1CCOc2cc(C#Cc3ccn4c(=O)n(CC(CN)=C(F)F)nc4c3)ccc21 [Example 63, trifluoroacetate] &field=IC50 returns > 100000 nM

Entry CC(=O)Nc1ccc(-c2ccc3nn(C/C(=C/F)CN)c(=O)n3c2)cc1 [Example 2, trifluoroacetate] — recorded IC50 = 68400 nM

Note to self: IC50 recorded for NCC(Cn1nc2cc(-c3ccc(N4CCNCC4)cc3)ccn2c1=O)=C(F)F [Example 49, ditrifluoroacetate] was > 100000 nM

Lookup result for CN1CCOc2cc(-c3ccn4c(=O)n(C/C(=C/F)CN)nc4c3)ccc21 [Example 44, hydrochloride] ; measured IC50: > 100000 nM

So for CC(=O)Nc1nc2cc(-c3ccc4nn(C/C(=C/F)CN)c(=O)n4c3)ccc2s1 [Example 15, trifluoroacetate] , the logged IC50 turned out to be > 100000 nM
